{"compound": "O=Cc1cc(Br)cc(Cc2cccnc2)c1", "melting point": "97 to 98 °C"}
{"compound": "CCN(c1ccc(Cl)cc1C(N)=S)S(=O)(=O)c1ccc(C)cc1", "melting point": "180 to 182 °C"}
{"compound": "CN1CC(CN)c2c[nH]c3cccc(c23)C1=O (stereo not drawn)", "melting point": "85 to 87 °C"}

###

{"compound": "CCOC(=O)c1cnc2snc(C)c2c1NCS(=O)(=O)c1ccc(Oc2ccc(Cl)cc2)cc1", "melting point": "117 to 120 °C"}
{"compound": "CC1(C)CCC(C)(C)c2cc(C(=O)Nc3ccc(F)cc3)ccc21", "melting point": "163 to 165 °C"}
{"compound": "CCCc1c(OCCCCCc2c(O)c(O)cc(Cl)c2Cl)ccc(C(=O)O)c1O", "melting point": "159 to 164 °C"}
{"compound": "CCCCCC(CC(=O)Nc1cc(CBr)ccc1C(C)(C)C)c1cccc2c1OCO2 (stereo unspecified)", "melting point": "119 to 120 °C"}
{"compound": "CCCCCCCCCCCCCCCC(O)C(N)CO (stereo unspecified)", "melting point": "81 °C"}
{"compound": "N#Cc1c[nH]c(-c2ccccc2F)c1", "melting point": "158 to 160 °C"}
{"compound": "COC(=O)c1c(I)cccc1Nc1ccccc1C(=O)O", "melting point": "191 to 193 °C"}
{"compound": "CN(C)C(=O)COc1cc(Cl)ccc1C(=O)NCCN1CCN(CCc2ccccc2)CC1", "melting point": "159 to 160 °C"}
{"compound": "COc1nccnc1C1(O)CN2CCC1CC2 (stereo unspecified)", "melting point": "130 to 131 °C"}
{"compound": "Brc1ccc2c(c1)N=C(N1CCOCC1)c1cccc3c1N2CC3", "melting point": "216 to 218 °C"}
{"compound": "CNC(=O)c1cc2c(Oc3ccc(/C=C/C(=O)NCC(O)CO)cc3)cncc2s1 (stereo unspecified)", "melting point": "225 to 226 °C"}

###

measured-property: melting point

{"compound": "CCCc1c(OCCCCOCCCCOc2c(C(C)=O)ccc(OCC(=O)O)c2CCC)ccc(C(C)=O)c1O", "measured-property": "melting point", "result": "68 to 71 °C"}
{"compound": "N#Cc1ccc(COc2cc(O)cc(C(=O)Nc3ccc(C#N)cc3)c2)cc1", "measured-property": "melting point", "result": "199 to 201 °C"}
{"compound": "CC1(C)OC(c2ccc(S(C)(=O)=O)c(Br)c2)=C(c2ccccc2)C1=O", "measured-property": "melting point", "result": "154 to 155 °C"}
{"compound": "O=C(CCCCc1ccccc1)Nc1ccc2c(c1O)C(=O)CC2", "measured-property": "melting point", "result": "119 to 121 °C"}
{"compound": "O=C(c1ccccc1Cl)c1ccc(O)c(Cl)c1Cl", "measured-property": "melting point", "result": "74 to 77 °C"}
{"compound": "O=C(CC(=O)C(F)F)c1cccs1", "measured-property": "melting point", "result": "78 to 80 °C"}
{"compound": "NS(=O)(=O)c1cccc2cc[nH]c12", "measured-property": "melting point", "result": "125 to 127 °C"}
{"compound": "CC(C)C(=O)Nc1cn(-c2cncc(F)c2)nc1CCl", "measured-property": "melting point", "result": "172 to 177 °C"}
{"compound": "CCOC(=O)c1ncc2[nH]c3ccc(C#N)cc3c2c1COC", "measured-property": "melting point", "result": "252 to 255 °C"}
{"compound": "Nc1c2ccccc2nc2c(=O)[nH][nH]c(=O)c12", "measured-property": "melting point", "result": "167 to 168 °C"}
{"compound": "CN1C(=O)C2C3CCC(C2C1=O)N1COc2ccccc2N=C31 (configuration not stated)", "measured-property": "melting point", "result": "222 to 224 °C"}
{"compound": "COc1cc(CC(=O)N2CCN(c3nsc4ccccc34)CC2)c([N+](=O)[O-])cc1OC", "measured-property": "melting point", "result": "170 °C"}
{"compound": "Oc1nsc(SCc2ccc(Cl)cc2Cl)n1", "measured-property": "melting point", "result": "134 °C"}
{"compound": "O=C(O)/C=C/c1ccc(-c2nc3c(=O)n(CC4CCC4)c(=O)n(CC4CCC4)c3[nH]2)cc1", "measured-property": "melting point", "result": "> 300 °C"}
{"compound": "CC(NC(=C(C#N)S(=O)(=O)c1ccc(Cl)cc1)N(C)c1cc(C(F)(F)F)cc(C(F)(F)F)c1)C(C)(C)C (configuration not stated)", "measured-property": "melting point", "result": "152 to 154 °C"}
{"compound": "c1ccc2nc(CN(CCN(Cc3ccc4ccccc4n3)Cc3ccc4ccccc4n3)Cc3ccc4ccccc4n3)ccc2c1", "measured-property": "melting point", "result": "196 to 198 °C"}
{"compound": "Cc1ccc2c(c1)CCOC2CCN1CCN(c2ccc(S(N)(=O)=O)cc2)CC1 (configuration not stated)", "measured-property": "melting point", "result": "221 to 222 °C"}
{"compound": "COC(=O)c1cccc(OCc2ccc3ccccc3c2)c1C", "measured-property": "melting point", "result": "47 to 48 °C"}
{"compound": "O=C(CN1C(=O)CC1SCc1ccccc1)NCCCCCCc1ccccc1 (configuration not stated)", "measured-property": "melting point", "result": "65 to 70 °C"}
{"compound": "CS(=O)(=O)Nn1c(=O)[nH]c2cc([N+](=O)[O-])c(NC3CCCC3)cc2c1=O", "measured-property": "melting point", "result": "146 to 155 °C"}
{"compound": "CCOc1nc(C(F)(F)F)cc(=O)n1-c1cc(OC)c(Br)cc1F", "measured-property": "melting point", "result": "126 to 128 °C"}
{"compound": "CC1(C)COc2ccc(C[C@H](N)[C@H](O)c3cccc(Cl)c3)cc21 (racemic)", "measured-property": "melting point", "result": "83 to 86 °C"}
{"compound": "CC(=O)c1nc2ccc(OCC(F)(F)C(F)(F)C(F)(F)C(F)F)cc2cc1O", "measured-property": "melting point", "result": "69 to 71 °C"}
{"compound": "Nc1nn2ccccc2c1N", "measured-property": "melting point", "result": "190 °C"}
{"compound": "CC(C)(C)OC(=O)CCN1CCC(O)(c2ccc(O)cc2CO)CC1", "measured-property": "melting point", "result": "68 to 70 °C"}
{"compound": "O=CNNc1ccc(NC(=O)c2cccc(N=C=S)c2)cc1", "measured-property": "melting point", "result": "> 290 °C"}
{"compound": "COc1ccccc1[N+]1([O-])CCNCC1", "measured-property": "melting point", "result": "157 to 160 °C"}
{"compound": "CC1(C(=O)Nc2ccc(N3CCOC3=O)c(C(F)(F)F)c2)CC1", "measured-property": "melting point", "result": "146 to 147 °C"}
{"compound": "CCCCCCCCCCCCNC(=O)c1ccccc1N", "measured-property": "melting point", "result": "73 to 75 °C"}
{"compound": "N#Cc1ccc(Oc2ccc(CC(=O)O)cc2)nc1", "measured-property": "melting point", "result": "148 to 151 °C"}
{"compound": "CN1CCN(C(=S)Nc2cc3sc(C(C)(C)C)nc3cc2N2CCN(C)CC2)CC1", "measured-property": "melting point", "result": "190 to 193 °C"}
{"compound": "CN(C)c1cc(Br)cc(S(=O)(=O)c2ccc([N+](=O)[O-])cc2)c1", "measured-property": "melting point", "result": "166 to 168 °C"}

###

{"molecule": "Cc1cccc(C)c1NCCNCC(O)COc1cccc2[nH]c3ccccc3c12 (configuration not stated)", "melting point": "162 to 163 °C"}
{"molecule": "COc1cc2ncnc(Nc3ccc(F)c(Cl)c3)c2cc1OCCCC1OCCO1", "melting point": "170 to 171 °C"}
{"molecule": "CC(C)C[C@H](NC(=O)C(CS)C(F)(F)F)C(=O)O (some centres not stated)", "melting point": "132 to 134 °C"}
{"molecule": "CCN(CC)c1ccc(C=CC(=O)C=Cc2ccc(N(CC)CC)cc2)cc1", "melting point": "168 °C"}
{"molecule": "CCC(O)(CO)c1ccc(OCc2ccc3ccccc3c2)c(OC)c1 (configuration not stated)", "melting point": "120 °C"}
{"molecule": "COc1ccc(CCN2CCC(C(O)c3nc4ccccc4s3)CC2)cc1 (configuration not stated)", "melting point": "127 to 129 °C"}
{"molecule": "CCNC(=O)c1c(C2CC2)nc(CC)n1Cc1ccc2oc(-c3ccccc3NS(=O)(=O)C(F)(F)F)c(Br)c2c1", "melting point": "124 to 130 °C"}
